- ASSAY_EXPLANATION: in vitro
- CONDITION_INFO: human, hela cells, % viability
RESULT_TYPE: viability at 28.5 h, 10 µM (%)
Could you give me the number in %? Just the number is fine.

// known answers, use as guide
{"columns": ["SMILES_CODE", "viability at 28.5 h, 10 µM [%]"],
 "data": [
  ["COCCn1c(=O)n(CC=C(C)C)c2cccnc21", 92.1],
  ["O=C(Nc1ccc2cccc(O)c2n1)c1cc[nH]c1", 94.9]
]}

Lab book: viability at 28.5 h, 10 µM of O=C(O)c1ccc(Oc2cccc([N+](=O)[O-])c2)cc1C(=O)O noted as 110

Lab book: viability at 28.5 h, 10 µM of Cn1c(=O)n(CC(=O)NC2CC2)c2cccnc21 noted as 98.7

Lab book: viability at 28.5 h, 10 µM of COc1ccc(C2=NNC(=O)c3cc4sccc4n3C2)cc1 noted as 93.1

====

- ASSAY_EXPLANATION: in vitro
- CONDITION_INFO: human, hela cells, % viability
RESULT_TYPE: viability at 28.5 h, 10 µM (%)
Could you give me the number in %? Just the number is fine.

{"columns": ["COMPOUND", "UNIT_LABEL", "viability at 28.5 h, 10 µM"],
 "data": [
  ["Oc1cc(C(F)(F)F)nc(NCc2ccncc2)n1 [CBK003563]", "%", 85.5],
  ["COc1ccc(C(=O)O)cc1S(=O)(=O)Nc1c(-c2cccs2)nc2cc(C)ccn12 [CBK297484]", "%", 82.9],
  ["COCCNc1nc(-c2cc(C(C)C)ccc2OC)ccc1C(=O)NCCNC(C)=O [CBK105985]", "%", 96.6],
  ["COc1ccc(-c2nnc(SCC(=O)Nc3cc(C)on3)n2C2CCCCC2)cc1 [CBK297510]", "%", 84.1],
  ["CN(C)CCNC(=O)c1ccc2[nH]ccc2c1 [CBK149062]", "%", 112]
]}

Lab book: viability at 28.5 h, 10 µM of O=C(CSc1nc2ccccc2c2nc3ccccc3n12)Nc1ccc(Cl)cc1F [CBK268098] noted as 115

Lab book: viability at 28.5 h, 10 µM of O=C(/C=C/c1cn(C2OC(CO)C(O)C2O)c(=O)[nH]c1=O)NCCCCCCNC(=O)C(F)(F)F (stereo not shown) [CBK201231] noted as 99.1

====

- ASSAY_EXPLANATION: in vitro
- CONDITION_INFO: human, hela cells, % viability
RESULT_TYPE: viability at 28.5 h, 10 µM (%)
Could you give me the number in %? Just the number is fine.

// known answers, use as guide
{"columns": ["MOLECULE", "viability at 28.5 h, 10 µM [%]"],
 "data": [
  ["O=C(c1ccc(F)cc1)[C@H]1CCCN(C(=O)c2n[nH]c3c2CCC3)C1", 86.7],
  ["Cc1nnc2sc(-c3ccc(NC(=S)NC(=O)c4cc5ccccc5o4)cc3)nn12", 100],
  ["CSCCCNC(=O)N1CCN(CCN2CCOCC2)CC1", 90.9]
]}

Next molecule, viability at 28.5 h, 10 µM to be filled in.
Lab book: viability at 28.5 h, 10 µM of CCCn1nccc1C(=O)NC1CCCN(Cc2cccc(OC)c2)C1 (stereo not drawn) noted as 84.9

====

Measured viability at 28.5 h, 10 µM, listed per entry for reference.
- ASSAY_EXPLANATION: in vitro
- CONDITION_INFO: human, hela cells, % viability
Could you give me the number in %? Just the number is fine.

// known answers, use as guide
{"columns": ["MOLECULE", "UNIT_LABEL", "viability at 28.5 h, 10 µM"],
 "data": [
  ["CCN(CC)S(=O)(=O)c1cc(C(=O)Nc2ccccc2C(=O)O)c(Cl)cc1Cl [CBK265731]", "%", 125],
  ["Cc1ccc(C)c(C(=O)C2=C(O)C(=O)N(CCCN3CCOCC3)C2c2cccc([N+](=O)[O-])c2)c1 (stereo not drawn) [CBK265503]", "%", 86.2],
  ["CCOc1ccc(S(=O)(=O)Nc2ccc(C(=O)O)cc2)cc1 [CBK287171]", "%", 89.9],
  ["O=C(Cc1n[nH]c(=O)[nH]c1=O)N/N=C/c1cccc(Br)c1 [CBK263086]", "%", 83],
  ["Cn1c(=O)c2c(nc(CN3CCCCC3)n2CC(=O)c2ccccc2)n(C)c1=O [CBK269563]", "%", 87.1],
  ["CCOC(=O)[C@@]12CC=CCN(C(=O)c3ccco3)[C@@H]1CCC2 [CBK284574]", "%", 104],
  ["O=C(O)/C=C(/CC(=O)O)C(=O)O [CBK260936]", "%", 102],
  ["CCC(C)(C)c1ccc(S(=O)(=O)Nc2n[nH]cc2Br)cc1 [CBK043734]", "%", 85]
]}

Lab book: viability at 28.5 h, 10 µM of CC(CNC(=O)Cn1nc(C(F)(F)F)c2c1CCC2)N1CCCC1 (stereo not drawn) [CBK282212] noted as 89.9

Lab book: viability at 28.5 h, 10 µM of O=c1c([N+](=O)[O-])c(O)c2ccccc2n1-c1ccccc1 [CBK115316] noted as 97.5

Lab book: viability at 28.5 h, 10 µM of O=C(NC(=S)Nc1cccc(-c2nc3ncccc3o2)c1)c1ccc(-c2cccc([N+](=O)[O-])c2)o1 [CBK267870] noted as 83.4

====

Measured viability at 28.5 h, 10 µM, listed per entry for reference.
- ASSAY_EXPLANATION: in vitro
- CONDITION_INFO: human, hela cells, % viability
Note to self: number, then unit, no commentary.

// known answers, use as guide
{"columns": ["MOLECULE", "TEST_RESULT"],
 "data": [
  ["S=c1ccc(N/N=C/C2CC=CCC2)n[nH]1 (stereo not drawn)", "95.3%"],
  ["CCn1ncnc1CN(C)Cc1ccc2c(c1)CN(C)C2", "86.1%"],
  ["Cc1ccc([N+](=O)[O-])cc1NC(=O)CSc1nnc(Cc2ccccc2)o1", "116%"]
]}

Lab book: viability at 28.5 h, 10 µM of CC(C)c1ccc2c(c1)C(N1CCN(C)CC1)Cc1cccnc1S2 (stereo not drawn) [CBK026244G] noted as 98.7%

Lab book: viability at 28.5 h, 10 µM of N=c1n(CCN2CCCCC2)c2ccccc2n1CC(O)COc1ccc(Cl)cc1 (stereo not drawn) [CBK262512C] noted as 89.7%

Lab book: viability at 28.5 h, 10 µM of CC(C)(C)NC(=O)Cn1cncc1-c1cnn(-c2ccccc2)c1 noted as 106%

====

Measured viability at 28.5 h, 10 µM, listed per entry for reference.
- ASSAY_EXPLANATION: in vitro
- CONDITION_INFO: human, hela cells, % viability
Could you give me the number in %? Just the number is fine.

// known answers, use as guide
{"columns": ["COMPOUND", "viability at 28.5 h, 10 µM / %"],
 "data": [
  ["O=C(Nc1ccc2c(c1)nc1n2CCN(Cc2ccccc2)C1)NC1CCCCC1", 109],
  ["Cc1nnc(-c2cc(CCC(C)C)n(-c3cccc(C(=O)N4CCCCC4)c3)n2)o1", 95.4],
  ["Cc1n[nH]c2c1CN(Cc1nc(C)c(C)n1C)CC2", 84.7],
  ["O=C1NC2(CCCC2)C(=O)N1Cc1cnn(-c2ccccc2)n1", 103],
  ["CC(C)Nc1nccnc1OC1CCNC1 (centres unmarked)", 92.5]
]}

Lab book: viability at 28.5 h, 10 µM of Cc1nc(CCNCc2c(C)nn(C)c2N2CCOCC2)cs1 noted as 101

Lab book: viability at 28.5 h, 10 µM of Cc1nc(SCC(=O)c2cc(Cl)ccc2Cl)c2ccccc2n1 noted as 100

====

- ASSAY_EXPLANATION: in vitro
- CONDITION_INFO: human, hela cells, % viability
Measured viability at 28.5 h, 10 µM, listed per entry for reference.
Could you give me the number in %? Just the number is fine.

Lab book: viability at 28.5 h, 10 µM of O=C(c1ccc2c(c1)OCCO2)N1CCN(c2ncccn2)CC1 [CBK144519] noted as 89.5

Lab book: viability at 28.5 h, 10 µM of O=C(CSc1nnc(Cc2ccccc2)o1)Nc1c(Cl)cc(Cl)cc1Cl [CBK266119] noted as 99.8

Lab book: viability at 28.5 h, 10 µM of CC(=O)NS(=O)(=O)c1ccc(NC(=O)CCSc2ccc(C)cc2)cc1 [CBK296141] noted as 88.5

Lab book: viability at 28.5 h, 10 µM of COc1ccc2[nH]cc(CCNC(=O)c3ccc(NC(C)=O)cc3)c2c1 [CBK269296] noted as 96.6

Lab book: viability at 28.5 h, 10 µM of COc1ccc(C(=O)N2CC[C@H]3CC(=O)N(CCNC(C)=O)CC[C@H]3C2)cc1 [CBK288784] noted as 78.8

Lab book: viability at 28.5 h, 10 µM of COc1ccc(-c2noc(CSc3nnc(-c4c[nH]c5ccccc45)n3C)n2)cc1OC [CBK268644] noted as 88.8

Lab book: viability at 28.5 h, 10 µM of CCCCC(NC(=O)c1cc2ccccc2[nH]1)C(=O)O (stereo not drawn) [CBK286647] noted as 85.9

Lab book: viability at 28.5 h, 10 µM of COc1cc(/C=C2\SC(=S)N(Cc3cccnc3)C2=O)ccc1OCc1cccc2ccccc12 [CBK264624] noted as 112

Lab book: viability at 28.5 h, 10 µM of COc1ccc(-n2ncc(-c3cccnc3)n2)cn1 [CBK112827] noted as 96.7
